- System: NCI-H295R
- Experiment: area under concentration-response curve (viability) (AUC (a.u.)); higher = less active
- Assay Setup: 48 h
Observable: area under concentration-response curve
Give the value as a plain number.

Observe how each entry below is paired with its result.
* NCCCC(N)(C(=O)O)C(F)F (centres undefined) | 491
* N\C1=N\C2=C(N=C[N]2COC(CO)CO)C(=O)N1 | 605

Requested field: area under concentration-response curve. Item: "CN(Cc1cnc2nc(N)nc(N)c2n1)c1ccc(C(=O)N[C@@H](CCC(=O)O)C(=O)O)cc1"
539

If you can, please state the reported area under concentration-response curve value of "CC1(C)CC(O)CC(C)(C)N1[O]" .
511

Can you look up the measured area under concentration-response curve of "C[C@H]([C@H]1C\C(=C(CO)/C(=O)O1)C)[C@H]2CC[C@H]3[C@@H]4C[C@H]5O[C@]56[C@@H](O)\C=C/C(=O)[C@]6(C)[C@H]4CC[C@]23C" for me?
401

----------
- Test system: CU-ACC1
- Experiment: area under concentration-response curve (viability) (AUC (a.u.)); higher = less active
- Assay Setup: 48 h
Please enter class 1 where area under concentration-response curve is greater than or equal to 400, and class 0 where it is lower.

* CN1CCN(CC1)C2=C(NC(=O)C/3=C/NC(=O)/C=C3C(F)(F)F)C=C(C=C2)C4=CC(=CC=C4)CN5CCOCC5 | class 1
* Fc1ccc(-c2nc(-c3ccccc3F)[nH]c2-c2ccncc2)cc1 | class 0
* COCCNCc1ccc(-c2cc3nccc(Oc4ccc(NC(=S)NC(=O)Cc5ccc(F)cc5)cc4F)c3s2)nc1 | class 1
* C[C@@H](OC[C@@]1(c2ccccc2)CC[C@]2(CCC(=O)N2)CN1)c1cc(C(F)(F)F)cc(C(F)(F)F)c1 | class 1
* Cc1ccc(NC(=O)Nc2nnc(Sc3ncnc4cc(OCCCN5CCOCC5)ccc34)s2)cc1 | class 1

In plain terms: is recorded area under concentration-response curve at least 400 for "Cc1cc(OCCCc2c3n(c4c(-c5c(C)nn(C)c5C)c(Cl)ccc24)[C@H](C)CN(c2cn(C)c4ccc(C(=O)O)cc24)C3=O)cc(C)c1Cl" ?
class 0

# check: area under concentration-response curve of "CCOCc1nc2c(N)nc3ccccc3c2n1CC(C)(C)O" is greater than or equal to 400
class 1

----------
- System: NCI-H295R
- Experiment: area under concentration-response curve (viability) (AUC (a.u.)); higher = less active
- Assay Setup: 48 h
Item-by-item account of area under concentration-response curve
Lab note: record just the number, no unit beside it.

Some molecules with recorded area under concentration-response curve:
* CN[C@@H]1C[C@H]2O[C@@](C)([C@@H]1OC)n1c3ccccc3c3c4c(c5c6ccccc6n2c5c31)C(=O)NC4 | 346
* COc1ccc(Cn2ccc3ccc(C(=O)NO)cc32)cc1 | 582

Form field: reported area under concentration-response curve of COc1cccc2c1C(=O)c1c(O)c3c(c(O)c1C2=O)C[C@@](O)(C(=O)CO)CC3OC1CC(N2CCOC(OC)C2)C(O)C(C)O1 (some centres undefined)
282

GET /values?readout=area under concentration-response curve&item= "O=C(O)[C@H](O)[C@@H](O)[C@H](O[C@@H]1O[C@H](CO)[C@H](O)[C@H](O)[C@H]1O)[C@H](O)CO"
307

Dear colleague, I am looking for the recorded area under concentration-response curve of the following molecule: "O=C(O)[C@@H](c1ccc(OCc2ccc3ccccc3n2)cc1)C1CCCC1"
493

Given "CC(=O)c1ccc2c(c1)c1cc(C(C)=O)ccc1n2CCNC(C)C" , state its recorded area under concentration-response curve.
421

Would you kindly share the measured area under concentration-response curve for "CCCCCCCCc1ccc(CCC(N)(CO)CO)cc1" ?
395

Using the record for "O=C1Nc2cc(Br)ccc2/C1=C1/Nc2ccccc2/C1=N\O" , report its area under concentration-response curve.
511

Record request: area under concentration-response curve value, item "C=C1/C(=C\C=C2/CCC[C@]3(C)[C@@H]([C@H](C)CCCC(C)(C)O)CC[C@@H]23)C[C@@H](O)C[C@@H]1O"
364

----------
- Test system: CU-ACC1
- Experiment: area under concentration-response curve (viability) (AUC (a.u.)); higher = less active
- Assay Setup: 48 h
Observable: area under concentration-response curve
The answer should be written as a number, with no unit following it.

// worked examples, area under concentration-response curve included
* OC1=CC2=C(C(=O)\C=C(/O2)C3=CC=CC=C3)C(=C1O)O | 458
* C/C=C(\C)C(=O)N[C@@H](c1ccccc1)[C@@H](O)C(=O)O[C@H]1C[C@@]2(O)[C@@H](OC(=O)c3ccccc3)[C@@H]3[C@]4(OC(C)=O)CO[C@@H]4C[C@H](O)[C@@]3(C)C(=O)[C@H](OC(C)=O)C(=C1C)C2(C)C | 447
* CCN(CC)CCN1C(=O)\C(=N/C2=CC=CC=C12)CC3=CC=C(OC)C=C3 | 472
* CN(C)NC(=O)CCC(=O)O | 405
* CC(C)[C@]12O[C@H]1[C@@H]3O[C@@]34[C@@]5(C)CC\C6=C(COC6=O)/[C@@H]5C[C@@H]7O[C@]47C2=O | 245

Please report the recorded area under concentration-response curve for NC1CCCN(c2c(/C=C3\SC(=O)NC3=O)cccc2-c2ccccc2)C1 (stereo not drawn) .
563

What value of area under concentration-response curve has been reported for the following molecule? "CC(C)NC(=O)COc1cccc(-c2nc(Nc3ccc4[nH]ncc4c3)c3ccccc3n2)c1"
481

Consider the molecule "OCCOc1ccc(/C(=C(/CCCl)c2ccccc2)c2ccccc2)cc1" and give its measured area under concentration-response curve.
470

----------
- Test system: CU-ACC1
- Experiment: AC50 viability; higher = less potent
- Assay Setup: 48 h
Observable: AC50 viability (µM)
Answer format: numeric, µM implied, no suffix.

Worked examples follow.
• CC(C)(O)/C=C\C(=O)[C@](C)(O)[C@H]1[C@H](O)C[C@]2(C)[C@@H]3CC=C4[C@@H](C=C(O)C(=O)C4(C)C)[C@]3(C)C(=O)C[C@@]12C = 0.372
• N#Cc1ccc(COC[C@H]2O[C@@H](n3c(NCc4ccc(Cl)c(Cl)c4)nc4c(N)ncnc43)[C@H](O)[C@@H]2O)cc1 = 20.9

Lab note: next compound to report on.
Please report the recorded AC50 viability for "CC(=O)N1CCN(CCOC2=CC=C(C=C2)C3CCN(CC3)/C4=N/[N]5C(=NN=C5C(F)(F)F)CC4)CC1" .
11.8

----------
Items are presented alongside their recorded area under concentration-response curve.
- System: CU-ACC2
- Experiment: area under concentration-response curve (viability) (AUC (a.u.)); higher = less active
- Assay Setup: 48 h
// keep it numeric: no unit symbol after the value

Before answering, review these 2 worked examples.
• CCCN(CCC)C(=O)C(CCC(=O)O)NC(=O)c1ccccc1 (stereo not given) = 570
• CC(C)Cc1ccc([C@@H](C)C(=O)N[S+](C)(=O)[O-])cc1 = 586

May I ask what area under concentration-response curve has been recorded for "CC(C)[C@H](CO)Nc1nc(Nc2cccc(Cl)c2)c2ncn(C(C)C)c2n1" ?
591

Value lookup for area under concentration-response curve; key = "Cc1cccc(-c2[nH]c(C(C)(C)C)nc2-c2ccc3c(c2)OCO3)n1"
595

What does the record list as area under concentration-response curve for "c1cc(-c2cnn3cc(-c4ccc(OCCN5CCCCC5)cc4)cnc23)ccn1" ?
456

Please give the measured area under concentration-response curve for this molecule: "N=C(N)NC(=O)c1nc(Cl)c(N)nc1N"
658

Endpoint output: area under concentration-response curve of "CCc1ccc(C(=O)Nc2cc(CN3CCN(C)CC3)cc(C(F)(F)F)c2)cc1C#Cc1cnc2ccnn2c1" . Value?
559

Please look up its area under concentration-response curve: "Cc1cnc(Nc2ccc(OCCN3CCCC3)cc2)nc1Nc1cccc([S+](=O)([O-])NC(C)(C)C)c1"
547

# get_value(readout='area under concentration-response curve', item= "O=C(Nc1ccnc(NC(=O)C2CC2)c1)c1c(Cl)cccc1Cl" )
463

Bench note: what area under concentration-response curve did "C[C@](N)(Cc1ccc(O)c(O)c1)C(=O)O" show?
477

----------
- Test system: NCI-H295R
- Experiment: area under concentration-response curve (viability) (AUC (a.u.)); higher = less active
- Assay Setup: 48 h
Measured area under concentration-response curve values are reported for all entries that follow.
Respond numerically, and do not add a unit to the figure.

* S=P(N1CC1)(N1CC1)N1CC1 | 562

Give the measured area under concentration-response curve of "Cc1c(CCOc2ccc(C(=O)O)cc2)c2cc(Cl)ccc2n1C(c1ccccc1)c1ccccc1" .
600

What value of area under concentration-response curve has been reported for the following compound? "CN1CCC(CNc2ccc3ncc(-c4cccc(OC(F)(F)F)c4)n3n2)CC1"
416

// lookup area under concentration-response curve for "COC(=O)Nc1ccc(-c2nc(N3CCOCC3)c3cnn(C4CCN(C(=O)OC)CC4)c3n2)cc1"
485

Query: area under concentration-response curve; subject: "COc1cc2nccc(Oc3ccc(NC(=O)NC4CC4)c(Cl)c3)c2cc1C(N)=O"
582

Any idea what area under concentration-response curve was measured for CC[C@@H](C)Nc1cc(C(=O)NC2CC3CC[C@@H](C2)N3c2ccc(C(=O)C3CC3)cn2)c(C)cc1C(N)=O (some centres not stated) ?
408

Dear colleague, I am looking for the recorded area under concentration-response curve of the following compound: "C[C@](O)(COc1ccc(C#N)cc1)C(=O)Nc1ccc(C#N)c(C(F)(F)F)c1"
248

What does the record list as area under concentration-response curve for "COc1ccc(-n2c(SCCCN3C(=O)c4cccc5cccc(c45)C3=O)nnc2-c2ccncc2)cc1" ?
406
